protocolText: Assessment of solubility: HT solubility in pION buffer, UV spectrophotometry
testContext: pION system solution buffer, pH 4.5, pH 4.5, aqueous buffer, kinetic from dmso stock, Solubility (pH 4.5), pH 4.5 buffer, 16-19 h incubation, 1.0% DMSO
measureName: solubility (µg/mL)
Respond numerically; units are µg/mL and should not be typed.

The examples below pair each entry with its known result.
# compound, dataValue
records = [
    ("Cc1ccc(OCc2ccc(C(=O)N3CCCCC3)cc2C)c(-c2csc(N[C@@H]3CC[C@H](C(=O)O)C3)n2)c1 [Compound 239]", 2.7),
    ("Cc1ccc(OCc2ccc(C(=O)N3CC[C@@H](CO)C3)cc2C)c(-c2csc(N3C[C@H]4CC[C@@H](C3)[C@H]4C(=O)O)n2)c1 [Compound 326]", 0.21),
]

--- query ---
For the compound shown here, Cc1ccc(OCc2ccc(CN3CCOCC3)cc2OC(F)(F)F)c(-c2csc(N3CCC(C(=O)O)CC3)n2)c1 [Compound 277] , give the reported solubility.
21

----------
protocolText: Assessment of solubility: HT solubility in pION buffer, UV spectrophotometry
testContext: pION system solution buffer, pH 4.5, pH 4.5, aqueous buffer, kinetic from dmso stock, Solubility (pH 4.5), pH 4.5 buffer, 16-19 h incubation, 1.0% DMSO
# key: entry, value: solubility
Field format: number, assumed µg/mL, no unit text.

Below, 4 compounds whose answers are already recorded.
# compound, measureName, dataValue
data = [
    ("Cc1ccc(OCc2ccc(CN3CCN(C)C(=O)C3C)cc2C)c(-c2csc(N3CC4CCC(C3)C4C(=O)O)n2)c1 (centres unmarked)", "solubility", 0.69),
    ("Cc1ccc(OCc2ccc(C(=O)N3CCCCC3)cc2C)c(-c2csc(N3CCCC(C)(C(=O)O)CC3)n2)c1 (centres unmarked)", "solubility", 0.4),
    ("Cc1ccc(OCc2ccc(CN3CCS(=O)(=O)CC3)cc2C)c(-c2csc(N3CC4CCC(C3)C4C(=O)O)n2)c1 (centres unmarked)", "solubility", 0.45),
    ("Cc1cc(CN2CCS(=O)(=O)CC2)ccc1COc1ccc(F)cc1-c1csc(N2CCC(C(=O)O)C(C)C2)n1 (centres unmarked)", "solubility", 0.15),
]

// solubility lookup, key: Cc1cc(CN2CCS(=O)(=O)CC2)ccc1COc1ccccc1-c1csc(N2CCC(C(=O)O)CC2C)n1 (centres unmarked)
2.3

Give the measured solubility of COC1CCN(C(=O)c2ccc(COc3ccc(C)cc3-c3csc(N4C[C@H]5CC[C@@H](C4)[C@H]5C(=O)O)n3)c(C)c2)CC1 .
0.13

Quick check: solubility of Cc1cc(C(=O)N2CCCC2)ccc1COc1c(C)cccc1-c1csc(N2CCC(C(=O)O)CC2)n1 ?
13

Given Cc1ccc(OCc2ccc(C(=O)N3CCCCC3)cc2C)c(-c2csc(N3CC4C(C3)C4C(=O)O)n2)c1 (centres unmarked) , state its recorded solubility.
0.9

For the compound shown here, N#Cc1cc(CN2CCOCC2)ccc1COc1c(Cl)cccc1-c1csc(N2CCC(C(=O)O)CC2)n1 , give the reported solubility.
36

May I ask what solubility has been recorded for Cc1ccc(OCc2ccc(CN3CCS(=O)(=O)CC3)cc2C)c(-c2csc(N3C4CCC3CC(C(=O)O)C4)n2)c1 (centres unmarked) ?
0.95

----------
protocolText: Assessment of solubility: HT solubility in pION buffer, UV spectrophotometry
testContext: pION system solution buffer, pH 7.4, pH 7.4, aqueous buffer, kinetic from dmso stock, Solubility (pH 7.4), pH 7.4 buffer, 16-19 h incubation, 1.0% DMSO
measureName: solubility

# molecule, measureName, dataValue
rows = [
    ("Cc1ccc(OCc2ccc(CN3CCOCC3)cc2C)c(-c2csc(N3CC(C(=O)O)C3)n2)c1 [Compound 215]", "solubility", "> 60 µg/mL"),
]

For the next question, use this molecule.
Consider the molecule Cc1ccc(OCc2ccc(CN3CCOCC3)cc2C#N)c(-c2csc(N3CC[C@@H](C(=O)O)[C@@H](C)C3)n2)c1 (relative stereo) [Compound 69] and give its measured solubility.
> 65 µg/mL

----------
Reported log10(solubility) by item:
protocolText: Assessment of solubility: HT solubility in pION buffer, UV spectrophotometry
testContext: pION system solution buffer, pH 4.5, pH 4.5, aqueous buffer, kinetic from dmso stock, Solubility (pH 4.5), pH 4.5 buffer, 16-19 h incubation, 1.0% DMSO
Reminder: these figures are log10 of reported solubility, in µg/mL before transformation.

Below, 5 compounds whose answers are already recorded.
# compound, log10(solubility)
data = [
    ("Cc1cc(CN2CCS(=O)(=O)CC2)ccc1COc1ccc(F)cc1-c1csc(N2CCC(C(=O)O)CC2)n1", -0.60),
    ("Cc1ccc(OCc2ccc(CN(C)[C@@H]3CCS(=O)(=O)C3)cc2C)c(-c2csc(N3C[C@H]4CC[C@@H](C3)[C@H]4C(=O)O)n2)c1", -0.68),
    ("Cc1ccc(OCc2ccc(CN3CCO[C@H](C)C3)cc2C#N)c(-c2csc(N3C[C@H]4CC[C@@H](C3)[C@H]4C(=O)O)n2)c1", 0.36),
    ("Cc1cc(C(=O)N2CCCCC2)ccc1COc1ccc(F)cc1-c1csc(N2CC3CCC(C2)C3C(=O)O)n1 (stereo not drawn)", -0.70),
    ("Cc1ccc(OCc2ccc(C(=O)N3CCC[C@@H](O)C3)cc2C)c(-c2csc(N3C[C@H]4CC[C@@H](C3)[C@H]4C(=O)O)n2)c1", -0.59),
]

Which log10(solubility) is reported for this compound? Cc1cc(CN2CCOCC2)ccc1COc1ccc(Cl)cc1-c1csc(N2CCC(C(=O)O)CC2)n1
1.48

Return reported log10(solubility); argument: Cc1ccc(OCc2ccc(CN3CCN(C)C(=O)C3)cc2C)c(-c2csc(N3C[C@H]4CC[C@@H](C3)[C@@]4(C)C(=O)O)n2)c1
-0.55

Consider the compound shown here: Cc1cc(CN2CCS(=O)(=O)CC2)ccc1COc1ccc(Cl)cc1-c1csc(N2CC3CCC(C2)C3C(=O)O)n1 (stereo not drawn) What is its recorded log10(solubility)?
0.15

Given the compound Cc1ccc(OCc2ccc(CN3CCS(=O)(=O)CC3)cc2C)c(-c2csc(N3C[C@H]4C[C@@H](C3)[C@H]4C(=O)O)n2)c1 , what is its reported log10(solubility)?
0.91

Using the record for Cc1ccc(OCc2ccc(C(=O)N3CCN(C)C(=O)C3)cc2C)c(-c2csc(N3C[C@H]4CC[C@@H](C3)[C@H]4C(=O)O)n2)c1 , report its log10(solubility).
-0.06

----------
# solubility annotations
protocolText: Assessment of solubility: HT solubility in pION buffer, UV spectrophotometry
testContext: pION system solution buffer, pH 4.5, pH 4.5, aqueous buffer, kinetic from dmso stock, Solubility (pH 4.5), pH 4.5 buffer, 16-19 h incubation, 1.0% DMSO
Kindly provide the numeric value in µg/mL only, without the unit symbol.

Examples with answers:
# compound, measurementUnits, solubility
measured = [
    ("Cc1cc(CN2CCS(=O)(=O)CC2)ccc1COc1ccc(Cl)cc1-c1csc(N2C3CCC2CC(C(=O)O)C3)n1 (stereo not drawn)", "µg/mL", 0.95),
    ("Cc1ccc(OCc2ccc(C(=O)N(C)CC(C)(C)CO)cc2C)c(-c2csc(N3C[C@H]4CC[C@@H](C3)[C@H]4C(=O)O)n2)c1", "µg/mL", 0.46),
    ("Cc1cc(CN2CCS(=O)(=O)CC2)ccc1COc1ccc(Cl)cc1-c1csc(N2CCC(C(=O)O)C(C(F)(F)F)C2)n1 (stereo not drawn)", "µg/mL", 0.15),
    ("Cc1ccc(OCc2ccc(C(=O)N(C)CC3CCCO3)cc2C)c(-c2csc(N3C[C@H]4CC[C@@H](C3)[C@H]4C(=O)O)n2)c1 (stereo partly drawn)", "µg/mL", 0.13),
]

Now examine the next entry.
Value lookup for solubility; key = Cc1ccc(OCc2ccc(C(=O)N3CCN(C)CC3)cc2C)c(-c2csc(N3C[C@H]4CC[C@@H](C3)[C@H]4C(=O)O)n2)c1
53

----------
protocolText: Assessment of solubility: HT solubility in pION buffer, UV spectrophotometry
testContext: pION system solution buffer, pH 4.5, pH 4.5, aqueous buffer, kinetic from dmso stock, Solubility (pH 4.5), pH 4.5 buffer, 16-19 h incubation, 1.0% DMSO
Below: a set of entries, each annotated with reported solubility.
Number in µg/mL, nothing else.

The following compounds have reported results that may help.
# compound, measurementUnits, solubility
data = [
    ("Cc1cc(C(=O)N2CCCCC2)ccc1COc1ccccc1-c1csc(N2C3CCC2CC(C(=O)O)C3)n1 (stereo not shown)", "µg/mL", 1.2),
    ("Cc1ccc(OCc2ccc(C(=O)N(C)CC(=O)N(C)C)cc2C)c(-c2csc(N3C[C@H]4CC[C@@H](C3)[C@H]4C(=O)O)n2)c1", "µg/mL", 4),
    ("CCN(CCC#N)C(=O)c1ccc(COc2ccc(C)cc2-c2csc(N3C[C@H]4CC[C@@H](C3)[C@H]4C(=O)O)n2)c(C)c1", "µg/mL", 0.15),
    ("Cc1ccc(OCc2ccc(CN3CCOCC3)cc2C)c(-c2csc(N3CC(C4(C(=O)O)CC4)C3)n2)c1", "µg/mL", 17),
    ("COCC1CN(Cc2ccc(COc3ccc(C)cc3-c3csc(N4C[C@H]5CC[C@@H](C4)[C@H]5C(=O)O)n3)c(C#N)c2)CCO1 (stereo partly shown)", "µg/mL", 11),
]

Bench note: what solubility did Cc1cc(C(=O)N2CCCCC2)ccc1COc1ccc(C#N)cc1-c1csc(N2C3CCC2CC(C(=O)O)C3)n1 (stereo not shown) show?
0.65

Would you kindly share the measured solubility for Cc1ccc(OCc2ccc(C(=O)N3CCCCC3)cc2C)c(-c2csc(N3CCC(C(=O)O)CC3)n2)c1 ?
0.95

Field request: solubility | item: Cc1cc(CN2CCOCC2)ccc1COc1ccc(F)cc1-c1csc(N2CCC(C(=O)O)CC2C)n1 (stereo not shown)
44

Sample Cc1cc(CN2CCS(=O)(=O)CC2)ccc1COc1c(C)cccc1-c1csc(N2C[C@H]3CC[C@@H](C2)[C@H]3C(=O)O)n1 — what was its solubility?
3

Recorded solubility of Cc1ccc(OCc2ccc(C(=O)N3CCCC3)cc2C)c(-c2csc(N3C[C@H]4CC[C@@H](C3)[C@H]4C(=O)O)n2)c1 , please.
0.17

Where do the numbers come from? From patent US8815857B2.
